B1: library; numbered along this chain (parent)
chain: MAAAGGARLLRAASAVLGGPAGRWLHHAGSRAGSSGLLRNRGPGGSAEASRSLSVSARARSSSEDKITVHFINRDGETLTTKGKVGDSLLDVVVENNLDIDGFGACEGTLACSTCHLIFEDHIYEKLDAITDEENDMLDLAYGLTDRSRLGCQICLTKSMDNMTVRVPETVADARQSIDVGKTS

# Variants of: B1
# Assay Explanation: scaled log2 fold change in cell abundance, elesclomol vs control (0 = silent mean, 1 = nonsense mean) (scaled log2 ratio); higher = higher viability under elesclomol (loss of FDX1 cuproptosis function);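 note: variant abundance is its share of total variant reads in each endpoint sample, from next-generation sequencing of the integrated ORF PCR-amplified out of genomic DNA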
# Condition Description: with ABC1 FDX1 KO; elesclomol 5 nM; glucose 10 mM; 14 days
Decision: scaled log2 fold change compared against 0.04; not below it gives class 1, below it gives class 0.

// query For this variant, is measured scaled log2 fold change 0.04 or higher? Q176C
// result class 1

// query For this variant, is measured scaled log2 fold change 0.04 or higher? V85A
// result class 1

// query For this variant, is measured scaled log2 fold change 0.04 or higher? E169H
// result class 1

// query For this variant, is measured scaled log2 fold change 0.04 or higher? N96Q
// result class 0

// query For this variant, is measured scaled log2 fold change 0.04 or higher? N97E
// result class 0

// query For this variant, is measured scaled log2 fold change 0.04 or higher? T81W
// result class 0

// query For this variant, is measured scaled log2 fold change 0.04 or higher? A57W
// result class 0

// query For this variant, is measured scaled log2 fold change 0.04 or higher? V85Y
// result class 0

// query For this variant, is measured scaled log2 fold change 0.04 or higher? D128F
// result class 0

// query For this variant, is measured scaled log2 fold change 0.04 or higher? S62E
// result class 0

// query For this variant, is measured scaled log2 fold change 0.04 or higher? L127E
// result class 1

// query For this variant, is measured scaled log2 fold change 0.04 or higher? S35C
// result class 1
